assay: Particle size and surface potential of pDNA-encapsulating MENDs, dynamic light scattering (Zetasizer Nano); type: physicochemical; conditions: pDNA MEND, cationic lipid:SOPE:Chol = 3:4:3
readout_label: zeta (mV)

Guide cases for zeta (mV), answers given:
{"molecule": "CCCCCCCCCCCCCCCCCC(=O)OCCCN(C)CCSSCCN(C)CCCOC(=O)CCCCCCCCCCCCCCCCC", "zeta (mV)": "−5.77"}
{"molecule": "CCCCCCCC/C=C\\CCCCCCCC(=O)OCC(CN(C)C)OC(=O)CCCCCCC/C=C\\CCCCCCCC (centres unmarked) [DODAP, reference compound]", "zeta (mV)": "−3.18"}
{"molecule": "CCCCCCCCCCCCCC(=O)OCCCN(C)CCSSCCN(C)CCCOC(=O)CCCCCCCCCCCCC", "zeta (mV)": "−0.08"}

a. CCCCC/C=C\C/C=C\CCCCCCCC(=O)OCCCN(C)CCSSCCN(C)CCCOC(=O)CCCCCCC/C=C\C/C=C\CCCCC
b. CCCCCCCCCCCCCC(=O)OCCCN(C)CCCCCCN(C)CCCOC(=O)CCCCCCCCCCCCC [Example B-2-1, reference compound]
Prompt line: API: POST /compare with a and b ; response names the item with higher zeta (mV). Returns: label corresponding to the selected item.
Response line: b
(b: 12.4 mV, a: −7.97 mV)
